Give measured EC50 for each item. Keep answers brief.
TARGET_DESC: human FXR (Homo sapiens, UniProt Q96RI1)
Sequence (Q96RI1 262-486 limits assumed): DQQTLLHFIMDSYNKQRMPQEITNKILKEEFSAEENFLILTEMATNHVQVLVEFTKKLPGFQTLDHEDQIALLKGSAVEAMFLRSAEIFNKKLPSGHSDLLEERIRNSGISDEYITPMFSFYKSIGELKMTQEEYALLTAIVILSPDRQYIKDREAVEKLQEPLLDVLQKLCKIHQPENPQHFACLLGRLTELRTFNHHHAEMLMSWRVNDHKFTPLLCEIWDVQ
ASSAY_METHOD_TEXT: transient human FXR/Gal4-luciferase reporter assay
TEST_SETTINGS: Gal4-hFXR LBD fusion, luciferase reporter in HEK293 cells; response relative to 8 μM GW-4064
One number for each entry, in µM.

Worked examples follow.
INSERT INTO measurements (compound, target_desc, measured_metric, experimental_value) VALUES
  ('CCc1noc(-c2cccc(N(C(=O)C3CCCCC3)C(C)C34CCC(c5nc(C)no5)(CC3)CC4)c2)n1 (single isomer, unassigned) [Example 71]', 'human FXR (Homo sapiens, UniProt Q96RI1)', 'EC50', 0.547),
  ('O=C(C1CCC(F)(F)CC1)N(CC12CCC(c3nc(C4CC4)no3)(CC1)CC2)c1cccc(-c2cc(C3CC3)no2)c1 [Example 151]', 'human FXR (Homo sapiens, UniProt Q96RI1)', 'EC50', 0.038),
  ('CCn1cc(-c2cccc(N(CC34CCC(c5nc(C6CC6)no5)(CC3)CC4)C(=O)C3CCOCC3)c2)oc1=O [Example 51]', 'human FXR (Homo sapiens, UniProt Q96RI1)', 'EC50', 1.19),
  ('CC(C)(O)c1nc(-c2cccc(N(CC34CCC(c5nc(C6CC6)no5)(CC3)CC4)C(=O)C3CCCCC3)c2)cs1 [Example 32]', 'human FXR (Homo sapiens, UniProt Q96RI1)', 'EC50', 0.32),
  ('CCOc1ncc(-c2cccc(N(CC34CCC(c5nc(C6CC6)no5)(CC3)CC4)C(=O)C3CCCCC3)c2)o1 [Example 8]', 'human FXR (Homo sapiens, UniProt Q96RI1)', 'EC50', 0.019);

Could you now look at the following compound, please?
**Query** For the compound CC1(C)CCCN(C(=O)N(CC23CCC(c4nc(C5CC5)no4)(CC2)CC3)c2cccc(-c3nc(C4CC4)no3)c2)C1 (racemic) [Example 62] , what EC50 is on record?
**Result** 3.81
